All figures here come from patent US20240376085A1.

target: IL-17A : IL-17RA binding (Homo sapiens, UniProt Q16552, K93Q); construct: Name: IL-17A-Flag; experiment: IL-17A(FLAG-tagged):IL-17RA(His-tagged) binding disruption Eu-HTRF assay, Protocol 1; conditions: FLAG-IL-17A 2.5 nM at 2x final concentration; average if tested more than once
Sequence (Q16552 with tags, fused parts or gaps K93Q): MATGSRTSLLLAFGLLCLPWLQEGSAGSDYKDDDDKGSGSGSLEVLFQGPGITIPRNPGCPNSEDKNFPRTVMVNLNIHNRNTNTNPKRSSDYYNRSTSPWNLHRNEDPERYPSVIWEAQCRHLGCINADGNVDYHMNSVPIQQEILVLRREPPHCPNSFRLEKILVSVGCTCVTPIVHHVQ
pIC50: −log10 of the molar value.
Here the recorded pIC50 is given for each entry.
measured_attribute: pIC50

- CC(C)n1nccc1C(=O)N[C@H](c1nc2ccc([C@H](NC(=O)CC3CC(F)(F)C3)C3CC3)cc2[nH]1)[C@@H]1C[C@H]2C[C@H]2C1 [Example 255]: 7.00 to 7.30
- CC(C)n1nccc1C(=O)N[C@H](c1nc2ccc([C@H](NC(=O)CC3CC(F)(F)C3)C3CC3)cc2[nH]1)[C@@H]1C[C@@H]2[C@H](C1)C2(F)F [Example 238]: > 7.30
- CCC(NC(=O)CCC(F)(F)F)c1ccc2[nH]c([C@@H](NC(=O)c3ccnn3C)C3CCC(F)(F)CC3)nc2c1 (single isomer, unassigned) [Example 52]: < 7.00
- CC(C)CC(NC(=O)CCC(F)(F)F)c1ccc2[nH]c([C@@H](NC(=O)c3ccnn3C)C3CCC(F)(F)CC3)nc2c1 (single isomer, unassigned) [Example 48]: < 7.00
- Cc1c(C(=O)N[C@H](c2nc3ccc([C@@H](C)NC(=O)CCC(F)(F)F)cc3[nH]2)C2CCC(F)(F)CC2)cnn1CC(F)F [Example 28]: < 7.00
